Items are presented alongside their recorded Potency.
TARGET DESC: Nuclear receptor ROR-gamma (Mus musculus) (UniProt P51450)
Sequence (P51450 whole entry): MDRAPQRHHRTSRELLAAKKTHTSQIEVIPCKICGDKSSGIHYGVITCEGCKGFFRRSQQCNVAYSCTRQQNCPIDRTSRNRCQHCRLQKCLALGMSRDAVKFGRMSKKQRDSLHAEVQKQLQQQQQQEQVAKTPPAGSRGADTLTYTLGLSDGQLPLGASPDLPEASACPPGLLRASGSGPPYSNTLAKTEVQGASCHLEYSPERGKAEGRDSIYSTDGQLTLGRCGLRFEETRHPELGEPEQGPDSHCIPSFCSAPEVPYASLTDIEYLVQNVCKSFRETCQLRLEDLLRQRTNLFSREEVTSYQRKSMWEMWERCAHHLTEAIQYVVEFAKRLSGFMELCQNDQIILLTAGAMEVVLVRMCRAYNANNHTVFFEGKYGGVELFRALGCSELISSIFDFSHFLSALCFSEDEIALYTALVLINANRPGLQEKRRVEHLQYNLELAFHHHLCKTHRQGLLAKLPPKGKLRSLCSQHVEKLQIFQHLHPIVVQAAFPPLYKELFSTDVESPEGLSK
METHOD DESCRIPTION: VP16 counterscreen qHTS for inhibitors of ROR gamma transcriptional activity.
Format: functional
In all, about 310,000 compounds went through this assay and about 11,000 (3.5%) were called active. Roughly 8% stayed inconclusive and do not appear here. The sample as a whole holds a higher share of actives than the screen did.

Previously resolved entries follow.
{"SMILES ENTRY": "COc1cccc2sc(Nc3nc(-c4ccccn4)cs3)nc12", "Potency": "355 µM (active)"}
{"SMILES ENTRY": "O=C(N/N=C(\\c1ccccc1)c1cccnc1)c1cccc(F)c1", "Potency": "891 µM (active)"}
{"SMILES ENTRY": "O=C(Oc1c(Cl)cc(Cl)c2cccnc12)c1cccc([N+](=O)[O-])c1", "Potency": "200 µM (active)"}

Sure, the documented Potency for `Cc1ccc(-n2c(C)cc(C(=O)COC(=O)c3cccnc3O)c2C)cc1` is 224 µM (active)

Numbers sourced from ChEMBL document CHEMBL1201862.
